Where do the numbers come from? From patent US20220040297A1.

Target: T1, CD3ε homodimer protein (human, UniProt P07766 23-126, limits assumed, sulfo-tag or biotin label in some ECL assays)
T1 construct: also called human CD3ε homodimer protein; CD3 (CD3ε)
T1 sequence (P07766 23-126 limits assumed): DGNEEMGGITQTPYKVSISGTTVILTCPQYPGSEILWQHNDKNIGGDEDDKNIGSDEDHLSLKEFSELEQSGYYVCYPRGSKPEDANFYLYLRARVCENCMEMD
Assay: SPR, CD3ε homodimer on chip;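 further: biacore SPR with antibody variants flowed as analyte over amine-coupled CD3ε homodimer on a CM chip, bound amount of each single-residue H chain variant over that of parent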
Exercise: for every item that follows, state its recorded ratio of amounts bound vs CE115HA000.

For CE115HA000 K43E (antibody, name in Kabat numbering, V domains shown) VH: QVQLVESGGGVVQPGRSLRLSCAASGFTFSNAWMHWVRQAPGEGLEWVAQIKAKSNNYATYYAESVKGRFTISRDDSKNSLYLQMNSLKTEDTAVYYCRYVHYGAYYGVDAWGQGTTVTVSS VL: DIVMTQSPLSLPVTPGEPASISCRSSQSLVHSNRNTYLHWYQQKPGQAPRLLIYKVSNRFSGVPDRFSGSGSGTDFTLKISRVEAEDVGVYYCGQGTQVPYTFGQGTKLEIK , what is its reported ratio of amounts bound vs CE115HA000?
0.9

Let us now turn to CE115HA000 N31A (antibody, name in Kabat numbering, V domains shown) VH: QVQLVESGGGVVQPGRSLRLSCAASGFTFSAAWMHWVRQAPGKGLEWVAQIKAKSNNYATYYAESVKGRFTISRDDSKNSLYLQMNSLKTEDTAVYYCRYVHYGAYYGVDAWGQGTTVTVSS VL: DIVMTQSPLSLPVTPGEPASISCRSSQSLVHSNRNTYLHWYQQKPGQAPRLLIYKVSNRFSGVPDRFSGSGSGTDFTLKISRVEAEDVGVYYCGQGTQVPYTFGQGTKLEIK
0.5

Let us now turn to CE115HA000 T28S (antibody, name in Kabat numbering, V domains shown) VH: QVQLVESGGGVVQPGRSLRLSCAASGFSFSNAWMHWVRQAPGKGLEWVAQIKAKSNNYATYYAESVKGRFTISRDDSKNSLYLQMNSLKTEDTAVYYCRYVHYGAYYGVDAWGQGTTVTVSS VL: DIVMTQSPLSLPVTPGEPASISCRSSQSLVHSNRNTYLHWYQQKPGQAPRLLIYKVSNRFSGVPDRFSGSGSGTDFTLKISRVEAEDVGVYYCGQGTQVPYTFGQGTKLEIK
0.91

Let us now turn to CE115HA000 S74P (antibody, name in Kabat numbering, V domains shown) VH: QVQLVESGGGVVQPGRSLRLSCAASGFTFSNAWMHWVRQAPGKGLEWVAQIKAKSNNYATYYAESVKGRFTISRDDPKNSLYLQMNSLKTEDTAVYYCRYVHYGAYYGVDAWGQGTTVTVSS VL: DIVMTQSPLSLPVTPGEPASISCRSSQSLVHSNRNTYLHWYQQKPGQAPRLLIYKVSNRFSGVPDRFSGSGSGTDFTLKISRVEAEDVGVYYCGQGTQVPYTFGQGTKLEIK
0.91
